test: Measurement of fluorescence quantum yield (Rhodamine B in ethanol as reference); format: physicochemical; conditions: solvent DMSO
OBSERVATION_TYPE: Φ1 (fluorescence quantum yield)

I: CCN1/C(=C/C=C/C(N)=C/C2=[N+](CC)c3ccccc3C2(C)C)C(C)(C)c2ccccc21
II: CCN1/C(=C/C=C/C(=C/C2=[N+](CC)c3ccccc3C2(C)C)N(CCO)CCO)C(C)(C)c2ccccc21
III: CCN1/C(=C/C=C/C(=C/C2=[N+](CC)c3ccccc3C2(C)C)NCc2ccccc2)C(C)(C)c2ccccc21
(Q) Highest Φ1 (fluorescence quantum yield) first, then in falling order down to the smallest. List the labels in the requested order.
(A) I, III, II
(I: 0.020, III: 0.009, II: 0.005)

1: CCN(CC)C(=C\C1=[N+](CC)c2ccccc2C1(C)C)/C=C/C=C1/N(CC)c2ccccc2C1(C)C
2: CCN1/C(=C/C=C/C(=C/C2=[N+](CC)c3ccccc3C2(C)C)NCCO)C(C)(C)c2ccccc21
(Q) Consider entries 1 and 2 . Which has the numerically lower Φ1 (fluorescence quantum yield)? Give the chosen item's label as your response.
(A) 1
(1: 0.004, 2: 0.009)

====

assay: Absorption and emission spectra of dyes in different solvents; type: physicochemical; conditions: solvent DCM
OBSERVATION_TYPE: λabs1 (nm)

[[record]]
smiles_code = "CCN1/C(=C/C=C/C(=C/C2=[N+](CC)c3ccccc3C2(C)C)NCCO)C(C)(C)c2ccccc21"
unit_spec = "nm"
observed_measurement = 517

[[record]]
smiles_code = "CCN1/C(=C/C=C/C(=C/C2=[N+](CC)c3ccccc3C2(C)C)NCc2ccccc2)C(C)(C)c2ccccc21"
unit_spec = "nm"
observed_measurement = 522

[[record]]
smiles_code = "CCN(CC)C(=C\\C1=[N+](CC)c2ccccc2C1(C)C)/C=C/C=C1/N(CC)c2ccccc2C1(C)C"
unit_spec = "nm"
observed_measurement = 523

[[record]]
smiles_code = "CCN1/C(=C/C=C/C(=C/C2=[N+](CC)c3ccccc3C2(C)C)Nc2ccccc2)C(C)(C)c2ccccc21"
unit_spec = "nm"
observed_measurement = 570

[[record]]
smiles_code = "CCN1/C(=C/C=C/C(=C/C2=[N+](CC)c3ccccc3C2(C)C)N(Cc2ccccc2)Cc2ccccc2)C(C)(C)c2ccccc21"
unit_spec = "nm"
observed_measurement = 528

[[record]]
smiles_code = "CCN1/C(=C/C=C/C(=C/C2=[N+](CC)c3ccccc3C2(C)C)N(CCO)CCO)C(C)(C)c2ccccc21"
unit_spec = "nm"
observed_measurement = 526

[[record]]
smiles_code = "CCN1/C(=C/C=C/C(N)=C/C2=[N+](CC)c3ccccc3C2(C)C)C(C)(C)c2ccccc21"
unit_spec = "nm"
observed_measurement = 546


====

assay: Absorption and emission spectra of dyes in different solvents; type: physicochemical; conditions: solvent Water
OBSERVATION_TYPE: λem (nm)

[[record]]
smiles_code = "CCN1/C(=C/C=C/C(N)=C/C2=[N+](CC)c3ccccc3C2(C)C)C(C)(C)c2ccccc21"
unit_spec = "nm"
observed_measurement = 619

[[record]]
smiles_code = "CCN1/C(=C/C=C/C(=C/C2=[N+](CC)c3ccccc3C2(C)C)NCc2ccccc2)C(C)(C)c2ccccc21"
unit_spec = "nm"
observed_measurement = 617

[[record]]
smiles_code = "CCN1/C(=C/C=C/C(=C/C2=[N+](CC)c3ccccc3C2(C)C)N(CCO)CCO)C(C)(C)c2ccccc21"
unit_spec = "nm"
observed_measurement = 615


====

experiment: Absorption and emission spectra of dyes in different solvents; type: physicochemical; design: key: Stokes shift in nm; details: Stokes shift to absorption peak 1; solvent THF
OBSERVATION_TYPE: Δλ1

[[record]]
smiles_code = "CCN(CC)C(=C\\C1=[N+](CC)c2ccccc2C1(C)C)/C=C/C=C1/N(CC)c2ccccc2C1(C)C"
observed_measurement = 87

[[record]]
smiles_code = "CCN1/C(=C/C=C/C(N)=C/C2=[N+](CC)c3ccccc3C2(C)C)C(C)(C)c2ccccc21"
observed_measurement = 64

[[record]]
smiles_code = "CCN1/C(=C/C=C/C(=C/C2=[N+](CC)c3ccccc3C2(C)C)NCCO)C(C)(C)c2ccccc21"
observed_measurement = 82

[[record]]
smiles_code = "CCN1/C(=C/C=C/C(=C/C2=[N+](CC)c3ccccc3C2(C)C)N(Cc2ccccc2)Cc2ccccc2)C(C)(C)c2ccccc21"
observed_measurement = 86

[[record]]
smiles_code = "CCN1/C(=C/C=C/C(=C/C2=[N+](CC)c3ccccc3C2(C)C)N(CCO)CCO)C(C)(C)c2ccccc21"
observed_measurement = 88

[[record]]
smiles_code = "CCN1/C(=C/C=C/C(=C/C2=[N+](CC)c3ccccc3C2(C)C)Nc2ccccc2)C(C)(C)c2ccccc21"
observed_measurement = 83

[[record]]
smiles_code = "CCN1/C(=C/C=C/C(=C/C2=[N+](CC)c3ccccc3C2(C)C)NCc2ccccc2)C(C)(C)c2ccccc21"
observed_measurement = 86


====

Assay: Absorption and emission spectra of dyes in different solvents
Format: physicochemical
Set-up: scale not given here
Conditions: solvent THF
Source text: In the present invention, compounds IIa to IIg were synthesized based on compound II, and their spectral properties were investigated. […]
OBSERVATION_TYPE: ε2 (molar extinction coefficient) (cm^−1M)

[[record]]
smiles_code = "CCN1/C(=C/C=C/C(N)=C/C2=[N+](CC)c3ccccc3C2(C)C)C(C)(C)c2ccccc21"
observation_type = "ε2 (molar extinction coefficient)"
observed_measurement = 1.6

[[record]]
smiles_code = "CCN1/C(=C/C=C/C(=C/C2=[N+](CC)c3ccccc3C2(C)C)NCCO)C(C)(C)c2ccccc21"
observation_type = "ε2 (molar extinction coefficient)"
observed_measurement = 2.2

[[record]]
smiles_code = "CCN1/C(=C/C=C/C(=C/C2=[N+](CC)c3ccccc3C2(C)C)N(CCO)CCO)C(C)(C)c2ccccc21"
observation_type = "ε2 (molar extinction coefficient)"
observed_measurement = 1.9


====

assay: Absorption and emission spectra of dyes in different solvents; type: physicochemical; design: key: Stokes shift in nm; conditions: Stokes shift to absorption peak 2; solvent DMSO
OBSERVATION_TYPE: Δλ2

[[record]]
smiles_code = "CCN1/C(=C/C=C/C(=C/C2=[N+](CC)c3ccccc3C2(C)C)Nc2ccccc2)C(C)(C)c2ccccc21"
observed_measurement = 230

[[record]]
smiles_code = "CCN1/C(=C/C=C/C(=C/C2=[N+](CC)c3ccccc3C2(C)C)NCc2ccccc2)C(C)(C)c2ccccc21"
observed_measurement = 174

[[record]]
smiles_code = "CCN1/C(=C/C=C/C(=C/C2=[N+](CC)c3ccccc3C2(C)C)N(CCO)CCO)C(C)(C)c2ccccc21"
observed_measurement = 154

[[record]]
smiles_code = "CCN1/C(=C/C=C/C(=C/C2=[N+](CC)c3ccccc3C2(C)C)N(Cc2ccccc2)Cc2ccccc2)C(C)(C)c2ccccc21"
observed_measurement = 151

